- Tested on: DMS-114
- ASSAY REMARKS: NCI tumour cell line growth inhibition, 48 h
Active and inactive are the calls of the source. Cut-off read from the data, not from the text of the source: active = GI50 up to about 1.1 µM and inactive = higher.
Answer with one of the outcomes given here: class 1 (active), class 0 (inactive)

{"columns": ["MOLECULE", "GROUP LABEL"],
 "data": [
  ["COc1cc2ccc(CC(N)=O)cc2cc1OC", "class 0"]
]}

Outcome logged for COc1ccc(/C=C/C(=O)c2c(-c3ccccc3)nn(C)c(=O)c2N2CC2C)cc1 (centres undefined) in this assay:
class 0

Again, but for `CC1=NN=C(NCCN(C)C)C/C1=C/c1ccccc1Cl`
class 0

Same lookup for `CC(C)(C)C(=O)Cc1cc2c(cc1C(=O)O)S(=O)(=O)NC(C(C)(C)C)=C2` , please.
class 0

Param item: `[O-][Cl+3]([O-])([O-])[O-].c1ccc(-c2csc3c4ccccc4c4ccccc4[n+]23)cc1`
class 1

Next: CC(Oc1cc2oc(=O)cc(-c3ccccc3)c2cc1Cl)C(=O)O (centres undefined)
class 0

And for `CC(=O)N/C(=C\c1ccc(Cc2nc3c([nH]2)C(=O)c2ccccc2C3=O)cc1)c1nc2c([nH]1)C(=O)c1ccccc1C2=O` ?
class 0

How about C=C(C)C1CC=C(C)C(O)([C@@]2(O)C[C@H](C(=C)C)CC=C2C)C1 (some centres undefined) ?
class 0

Likewise for COC(=O)C(Cc1nc2ccc(Cl)cc2nc1O)C(=O)C(=O)Nc1cc(C)ccc1C (centres undefined) ?
class 0
